This listing pairs compounds with measured EPO/EBP-Ig % inh @ 50 μM.
Molecular target: EBP-Ig (N-terminal 225 amino acids of the human EPO receptor joined to an Ig heavy chain) (Homo sapiens, UniProt P19235)
Construct: Ig heavy chain (fusion partner); made in house; host or cells: NSO cells (secreted into conditioned media)
Sequence (P19235 25-250 limits assumed): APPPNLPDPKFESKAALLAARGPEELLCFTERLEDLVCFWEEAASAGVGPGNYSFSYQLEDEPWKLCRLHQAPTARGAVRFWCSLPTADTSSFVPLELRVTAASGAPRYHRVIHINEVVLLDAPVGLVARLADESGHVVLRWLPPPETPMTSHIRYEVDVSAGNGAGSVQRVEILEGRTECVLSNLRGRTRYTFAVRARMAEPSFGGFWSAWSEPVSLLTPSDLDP
Assay: Inhibition of [125I]EPO binding to immobilized EBP-Ig (EPO binding protein-Ig), scintillation Flash plate competition assay
Conditions: Table 5; 50 μM
Procedure: The interaction of biotin and streptavidin is frequently employed to capture and effectively immobilize reagents useful in assay protocols and has been employed here as a simple method to capture and immobilize EBP-Ig. […] The amount of light produced was quantified to estimate the amount of ligand binding. […] All wells were adjusted to a final DMSO concentration of 5%. […] Corrected total binding (CTB) was calculated as: TB−NSB=CTB. […]
Kindly provide the numeric value in % only, without the unit symbol.

Asked: Determine its reported EPO/EBP-Ig % inh @ 50 μM: O=C(O)CCC(C(=O)O)N(C/C=C/c1ccc(NC(=O)CC2(CC(=O)O)CCCC2)cc1)Cc1ccc(OCc2ccccc2)cc1 (stereo not shown) [compound 88]
Given back: 10.3

Asked: Determine its reported EPO/EBP-Ig % inh @ 50 μM: O=C(O)CCC(C(=O)O)N(C/C=C/c1ccc(NC(=O)c2ccc(-c3ccccc3)cc2)cc1)Cc1ccc(OCc2ccccc2)cc1 (stereo not shown) [compound 90]
Given back: 29

Asked: Determine its reported EPO/EBP-Ig % inh @ 50 μM: O=C(O)CCC(C(=O)O)N(C/C=C/c1ccc(NC(=O)c2ccncc2)cc1)Cc1ccc(OCc2ccccc2)cc1 (stereo not shown) [compound 86]
Given back: 37

Asked: Determine its reported EPO/EBP-Ig % inh @ 50 μM: CC(C)(C)OC(=O)CC(C(=O)OC(C)(C)C)N(C/C=C/c1cccc(Oc2ccccc2)c1)Cc1cccc(Oc2ccccc2)c1 (stereo not shown) [compound 76]
Given back: 25
